- Test system: ALOMY
- protocol: Greenhouse trial, PE application on sensitive and resistant biotypes (test method 8)
- Type: in vivo, Alopecurus myosuroides
- applied-conditions: sensitive biotype, g of AS/ha: (A) 90, (B) 1200, (C) 90, mixture 90 + 1200 + 90, iodosulfuron 10
property: activity ALOMY sensitive (visual, scale 0-100%)

- entry-smiles: "O=C(Nc1ccc(F)cc1F)c1cccnc1Oc1cccc(C(F)(F)F)c1"
  unit-annotation: "%"
  measured-value: 30
- entry-smiles: "COc1nc(C)nc(NC(=O)NS(=O)(=O)c2cc(I)ccc2C(=O)O)n1"
  unit-annotation: "%"
  measured-value: 98
- entry-smiles: "CCC(CC)Nc1c([N+](=O)[O-])cc(C)c(C)c1[N+](=O)[O-]"
  unit-annotation: "%"
  measured-value: 30
- entry-smiles: "CC(C)N(C(=O)COc1nnc(C(F)(F)F)s1)c1ccc(F)cc1"
  unit-annotation: "%"
  measured-value: 80
